// data source = patent US10882860B2

- procedureSummary: Solubility of the starting solid by the gravimetric method
- Format: physicochemical
- runParameters: organic solvent or mixture, thermodynamic from solid; n-Butanol; 50° C.; read-out: Solubility at 50° C.
measuredProperty: solubility (µg/mL)
State the answer as a number, implicitly in µg/mL.

So what's the measured solubility for this one? CC(C)CC(=O)Nc1cncc(-c2ccc3[nH]nc(-c4nc5c(-c6cccc(F)c6)cncc5[nH]4)c3c2)c1
2000

====

- procedureSummary: Solubility of the starting solid by the gravimetric method
- Assay type: physicochemical
- runParameters: thermodynamic from solid; water; 50° C.; read-out: Solubility at 50° C.
measuredProperty: solubility
Express your answer as a number followed by its unit.

So what's the measured solubility for this one? CC(C)CC(=O)Nc1cncc(-c2ccc3[nH]nc(-c4nc5c(-c6cccc(F)c6)cncc5[nH]4)c3c2)c1 [starting solid]
1000 µg/mL
